Hey, just so you know, these numbers are from patent US20070049593A1.

Reported values of IC50 for individual entries
molecular target: HCV polymerase (Hepatitis C virus genotype 1b, UniProt P26663); construct: a region encoding NS5B (J Virol 1991 March, 65(3), 1105-13, 544 amino acids after deletion of 47 amino acids on the C-terminal); 6xHis (C); made in house; host or cells: Escherichia coli; experiment: biochemical; parameters: species or system HCV BK strain
Sequence (P26663 2420-2963): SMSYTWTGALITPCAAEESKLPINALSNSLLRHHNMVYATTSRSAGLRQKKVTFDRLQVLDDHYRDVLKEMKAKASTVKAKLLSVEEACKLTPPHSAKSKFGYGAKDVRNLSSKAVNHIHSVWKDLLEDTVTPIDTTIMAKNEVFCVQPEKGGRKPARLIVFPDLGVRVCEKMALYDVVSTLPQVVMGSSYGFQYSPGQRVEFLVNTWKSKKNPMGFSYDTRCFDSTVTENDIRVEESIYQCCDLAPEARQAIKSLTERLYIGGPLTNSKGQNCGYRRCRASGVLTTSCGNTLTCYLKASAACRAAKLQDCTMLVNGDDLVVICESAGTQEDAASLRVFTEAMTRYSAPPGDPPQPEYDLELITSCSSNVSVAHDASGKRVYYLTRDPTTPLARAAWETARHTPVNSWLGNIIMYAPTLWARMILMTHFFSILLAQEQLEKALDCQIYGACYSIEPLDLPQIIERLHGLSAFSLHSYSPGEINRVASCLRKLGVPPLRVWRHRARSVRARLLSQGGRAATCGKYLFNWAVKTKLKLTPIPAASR
Counter-ions that a name gives are not always drawn.
Measured Parameter: IC50

Compound: CCOC(=O)c1ccc2c(c1)nc(C(C)(C)NC(=O)c1ccc3c(C4CCCCC4)c4n(c3c1)CCOc1ccccc1-4)n2C
Result: < 100 nM
--
Compound: O=C(O)c1ccc2c(C3CCCCC3)c3n(c2c1)CCN(CCN1CCCCC1)c1cc(OC(F)(F)F)ccc1-3 [Example 1-522, dihydrochloride]
Result: < 100 nM
--
Compound: O=C(O)c1ccc2c(C3CCCCC3)c3n(c2c1)CCOc1c-3cccc1N(CCOCc1ccccc1)CCN1CCCCC1 [Example 2-256, dihydrochloride]
Result: < 100 nM
--
Compound: CN(C(=O)CN1CCOCC1)c1ccc(N2CCOCC2)c(COc2ccc3c(c2)OCCn2c-3c(C3CCCCC3)c3ccc(C(=O)O)cc32)c1 [Example 2-22, dihydrochloride]
Result: < 100 nM
--
Compound: O=C(NCc1nc2ccccc2n1CCO)c1ccc2c(C3CCCCC3)c3n(c2c1)CCOc1ccccc1-3
Result: < 100 nM
--
Compound: COC(=O)[C@@H]1Cc2ccc(O)cc2CN1C(=O)c1ccc2c(C3CCCCC3)c3n(c2c1)CCOc1cc(OC)ccc1-3
Result: 100 to 1000 nM
--
Compound: O=C(O)c1ccc2c(C3CCCCC3)c3n(c2c1)CCOc1c(NCCN2CCCCC2)cccc1-3 [Example 2-478, dihydrochloride]
Result: < 100 nM
--
Compound: O=C(O)c1ccc2c(C3CCCCC3)c3n(c2c1)CCN(CC(=O)N1CCC2CCCCC2C1)c1ccccc1-3 (stereo not drawn) [Example 1-141, monohydrochloride]
Result: < 100 nM
--
Compound: CCN1CCN(C(=O)CN2CCn3c(c(C4CCCCC4)c4ccc(C(=O)NC(C)(C)CO)cc43)-c3ccccc32)CC1
Result: 100 to 1000 nM
--
Compound: CC(C)(NC(=O)c1ccc2c(C3CCCCC3)c3n(c2c1)CCOc1ccccc1-3)c1nc2ccc(C#N)cc2[nH]1
Result: < 100 nM
--
Compound: COCC1CCCN(CCN2CCn3c(c(C4CCCCC4)c4ccc(C(=O)O)cc43)-c3ccccc32)C1 (stereo not drawn) [Example 1-200, dihydrochloride]
Result: < 100 nM
--
Compound: COc1ccc2c(c1)OCCn1c-2c(C2CCCCC2)c2ccc(C(=O)N[C@@H](Cc3ccc(O)cc3)C3=NCCN3)cc21
Result: < 100 nM
